Taken from patent US20110318412A1.

# Procedure details: Measured physicochemical parameters (logP, pKa) used for the simulation
Observation type: pKa
Answers are plain numbers.

Q: Quick check: pKa of CN(C)CCC=C1c2ccccc2COc2ccccc21 (mixture of isomers) [doxepin] ?
Ans: 8.96

* * *

# Procedure details: Doxepin plasma concentration after a 3 mg capsule in humans
# Type: in vivo, human
# Condition summary: human, plasma, oral; humans averaging about 70 kg, 3 mg capsule, separate study
Where a name gives a salt, the structure may show the parent alone.
Observation type: concentration at 60 min

Q: May I ask what concentration at 60 min has been recorded for CN(C)CCC=C1c2ccccc2COc2ccccc21 (mixture of isomers) [doxepin hydrochloride] ?
Ans: ~0.1 ng/mL
